TEST_PROTOCOL: Cytotoxicity against human HepG2 cells assessed as cell viability at 32 ug/ml measured by SRB assay
Format: toxicity, cell-based
EXPERIMENTAL_PARAMETERS: at 32 µg/mL, read-out: Activity
READOUT: viability at 32 ug/ml (%)
Kindly answer with a numeric value in %, unit omitted.

Consider "C=CCc1ccc(OCCC[N+](C)(C)CCCCCC)c(-c2ccc(OCCC[N+](C)(C)CCCCCC)c(CC=C)c2)c1.[Br-].[Br-]" . Its measured viability at 32 ug/ml is 68.1

====

TEST_PROTOCOL: Hemolytic activity in sheep RBC
Type: toxicity, cell-based, Ovis aries, Erythrocyte
EXPERIMENTAL_PARAMETERS: sheep red blood cells (erythrocytes)
Please use Criterion met for HC50 under 500 µg/mL and Criterion not met for everything else, ties included.

// known answers, use as guide
{"MOLECULE": "C=CCc1ccc(OCCN)c(-c2ccc(OCCN)c(CC=C)c2)c1.Cl.Cl", "CATEGORY_LABEL": "Criterion not met"}
{"MOLECULE": "C=CCc1ccc(OCC(=O)NCCC[N+](C)(C)CCCCCC)c(-c2ccc(OCC(=O)NCCC[N+](C)(C)CCCCCC)c(CC=C)c2)c1.[Br-].[Br-]", "CATEGORY_LABEL": "Criterion met"}
{"MOLECULE": "C=CCc1ccc(OCCC[N+](C)(C)CCCC)c(-c2ccc(OCCC[N+](C)(C)CCCC)c(CC=C)c2)c1.[Br-].[Br-]", "CATEGORY_LABEL": "Criterion not met"}
{"MOLECULE": "C=CCc1ccc(OCC(=O)NC(CCCCN)C(=O)NCCCCCCCCCC)c(-c2ccc(OCC(=O)NC(CCCCN)C(=O)NCCCCCCCCCC)c(CC=C)c2)c1.O=C(O)C(F)(F)F.O=C(O)C(F)(F)F (stereo unspecified)", "CATEGORY_LABEL": "Criterion not met"}
{"MOLECULE": "C=CCc1ccc(OCC(=O)NC(CCCCN)C(=O)NCC23CC4CC(CC(C4)C2)C3)c(-c2ccc(OCC(=O)NC(CCCCN)C(=O)NCC34CC5CC(CC(C5)C3)C4)c(CC=C)c2)c1.O=C(O)C(F)(F)F.O=C(O)C(F)(F)F (stereo unspecified)", "CATEGORY_LABEL": "Criterion not met"}
{"MOLECULE": "C=CCc1ccc(OCC(=O)NCCC[N+](C)(C)CCCCCCCC)c(-c2ccc(OCC(=O)NCCC[N+](C)(C)CCCCCCCC)c(CC=C)c2)c1.[Br-].[Br-]", "CATEGORY_LABEL": "Criterion met"}
{"MOLECULE": "C=CCc1ccc(OCC(=O)NCCC[N+](C)(C)CCCCCCCCCC)c(-c2ccc(OCC(=O)NCCC[N+](C)(C)CCCCCCCCCC)c(CC=C)c2)c1.[Br-].[Br-]", "CATEGORY_LABEL": "Criterion met"}
{"MOLECULE": "C=CCc1ccc(OCCC[N+](C)(C)CCCCCC)c(-c2ccc(OCCC[N+](C)(C)CCCCCC)c(CC=C)c2)c1.[Br-].[Br-]", "CATEGORY_LABEL": "Criterion met"}
{"MOLECULE": "C=CCc1ccc(OCCC[N+](C)(C)CCCCCCCC)c(-c2ccc(OCCC[N+](C)(C)CCCCCCCC)c(CC=C)c2)c1.[Br-].[Br-]", "CATEGORY_LABEL": "Criterion met"}

Attention now turns to another entry.
Inquiry: For "C=CCc1ccc(OCCCN)c(-c2ccc(OCCCN)c(CC=C)c2)c1.Cl.Cl" , is the recorded HC50 below the cut-off of 500 µg/mL?
Reply text: Criterion met

====

TEST_PROTOCOL: Cytotoxicity against human HepG2 cells assessed as cell viability at 64 ug/ml measured by SRB assay
Format: toxicity, cell-based
EXPERIMENTAL_PARAMETERS: at 64 µg/mL, read-out: Activity
READOUT: viability at 64 ug/ml (%)
Give just the numeric value; % need not be written.

The molecule listed as "C=CCc1ccc(OCCC[N+](C)(C)CCCCCC)c(-c2ccc(OCCC[N+](C)(C)CCCCCC)c(CC=C)c2)c1.[Br-].[Br-]" has a reported viability at 64 ug/ml of 55.2

====

Overview of recorded MIC for various molecules
Test system: Escherichia coli
TEST_PROTOCOL: Antibacterial activity against Escherichia coli ATCC 25922
Type: functional
Form entry: value (µg/mL) — number only.

Before answering, review these 3 worked examples.
{"MOLECULE": "C=CCc1ccc(OCC(=O)NCCCCN)c(-c2ccc(OCC(=O)NCCCCN)c(CC=C)c2)c1.O=C(O)C(F)(F)F.O=C(O)C(F)(F)F", "TARGET_OR_TEST_SYSTEM": "Escherichia coli", "READOUT": "MIC", "OBSERVED": 128}
{"MOLECULE": "C=CCc1ccc(OCC(=O)NC(CCCCN)C(=O)NCCCCCCCC)c(-c2ccc(OCC(=O)NC(CCCCN)C(=O)NCCCCCCCC)c(CC=C)c2)c1.O=C(O)C(F)(F)F.O=C(O)C(F)(F)F (stereo unspecified)", "TARGET_OR_TEST_SYSTEM": "Escherichia coli", "READOUT": "MIC", "OBSERVED": 64}
{"MOLECULE": "C=CCc1ccc(OCCN)c(-c2ccc(OCCN)c(CC=C)c2)c1.Cl.Cl", "TARGET_OR_TEST_SYSTEM": "Escherichia coli", "READOUT": "MIC", "OBSERVED": 16}

Then this molecule:
Param item: "C=CCc1ccc(OCC(=O)NCCC[N+](C)(C)CCCC)c(-c2ccc(OCC(=O)NCCC[N+](C)(C)CCCC)c(CC=C)c2)c1.[Br-].[Br-]" ; param system: Escherichia coli; output MIC: 128

====

As shown below, each of these molecules has a reported MIC value.
System: Staphylococcus aureus
TEST_PROTOCOL: Antibacterial activity against Staphylococcus aureus ATCC 31007
Assay type: functional
# output: bare number, implied unit µg/mL

Solved entries:
{"MOLECULE": "C=CCc1ccc(OCCC[N+](C)(C)CCCCCC)c(-c2ccc(OCCC[N+](C)(C)CCCCCC)c(CC=C)c2)c1.[Br-].[Br-]", "MIC (µg/mL)": 0.5}
{"MOLECULE": "C=CCc1ccc(OCC(=O)NC(CCCCN)C(=O)NCCCCCCCCCCCC)c(-c2ccc(OCC(=O)NC(CCCCN)C(=O)NCCCCCCCCCCCC)c(CC=C)c2)c1.O=C(O)C(F)(F)F.O=C(O)C(F)(F)F (configuration not stated)", "MIC (µg/mL)": 64}
{"MOLECULE": "C=CCc1ccc(OCC(=O)NC(CCCCN)C(=O)NCc2ccc(-c3ccccc3)cc2)c(-c2ccc(OCC(=O)NC(CCCCN)C(=O)NCc3ccc(-c4ccccc4)cc3)c(CC=C)c2)c1.O=C(O)C(F)(F)F.O=C(O)C(F)(F)F (configuration not stated)", "MIC (µg/mL)": 32}
{"MOLECULE": "C=CCc1ccc(OCCCN)c(-c2ccc(OCCCN)c(CC=C)c2)c1.Cl.Cl", "MIC (µg/mL)": 8}
{"MOLECULE": "C=CCc1ccc(OCC(=O)NC(CCCCN)C(=O)NCCCCCC)c(-c2ccc(OCC(=O)NC(CCCCN)C(=O)NCCCCCC)c(CC=C)c2)c1.O=C(O)C(F)(F)F.O=C(O)C(F)(F)F (configuration not stated)", "MIC (µg/mL)": 8}
{"MOLECULE": "C=CCc1ccc(O)c(-c2ccc(O)c(CC=C)c2)c1", "MIC (µg/mL)": 64}

// moving on: another record for MIC
Entry "C=CCc1ccc(OCC(=O)NCCC[N+](C)(C)C)c(-c2ccc(OCC(=O)NCCC[N+](C)(C)C)c(CC=C)c2)c1.[I-].[I-]" , MIC reported as 128

====

Known MIC of a selection of compounds
Test system: Staphylococcus aureus
TEST_PROTOCOL: Antibacterial activity against Staphylococcus aureus ATCC 31007
Format: functional
Report the value in µg/mL with no unit label.

Recorded MIC, per entry:
{"COMPOUND": "C=CCc1ccc(OCC(=O)NCCC[N+](C)(C)CCCCCCCCCCCC)c(-c2ccc(OCC(=O)NCCC[N+](C)(C)CCCCCCCCCCCC)c(CC=C)c2)c1.[Br-].[Br-]", "TARGET_OR_TEST_SYSTEM": "Staphylococcus aureus", "READOUT": "MIC", "VALUE_UNITS": "µg/mL", "OBSERVED": 8}
{"COMPOUND": "C=CCc1ccc(OCC(=O)NC(CCCCN)C(=O)NCCCCCCCCCC)c(-c2ccc(OCC(=O)NC(CCCCN)C(=O)NCCCCCCCCCC)c(CC=C)c2)c1.O=C(O)C(F)(F)F.O=C(O)C(F)(F)F (stereo unspecified)", "TARGET_OR_TEST_SYSTEM": "Staphylococcus aureus", "READOUT": "MIC", "VALUE_UNITS": "µg/mL", "OBSERVED": 8}

Please find the next compound below.
Known value: Staphylococcus aureus MIC of the compound "C=CCc1ccc(OCCC[N+](C)(C)CCCCCCCC)c(-c2ccc(OCCC[N+](C)(C)CCCCCCCC)c(CC=C)c2)c1.[Br-].[Br-]" equals 2

Source listed as ChEMBL document CHEMBL5113489.
